Entries with their measured Ki, system Induced myeloid leukemia cell differentiation protein Mcl-1 (Homo sapiens):
Express the result in nM but write the number alone.

Solved cases below.
Cc1cc(OCCCc2c(C(=O)NS(=O)(=O)c3cccc(CNC(=O)c4cccn4C)c3)[nH]c3c(-c4c(C)nn(C)c4C)c(Cl)ccc23)cc(C)c1Cl: 91
Cc1cc(OCCCc2c(C(=O)NS(=O)(=O)c3ccnc(N(C)CCc4ccccc4)c3)[nH]c3c(-c4c(C)nn(C)c4C)c(Cl)ccc23)cc(C)c1Cl: 226
Cc1cc(OCCCc2c(C(=O)NS(=O)(=O)c3ccccc3)[nH]c3c(-c4c(C)nn(C)c4C)c(Cl)ccc23)cc(C)c1Cl: 64

Okay, next one:
Suppose we examine the compound Cc1cc(OCCCc2c(C(=O)NS(=O)(=O)c3ccc(C(=O)NCc4ccccc4)o3)[nH]c3c(-c4c(C)nn(C)c4C)c(Cl)ccc23)cc(C)c1Cl ; what Ki value has been reported? 84

----------
Each entry below carries its reported Ki.
biological target: Induced myeloid leukemia cell differentiation protein Mcl-1 (Homo sapiens)
Use nM as the unit, but write only the number.

Cc1cc(OCCCc2c(C(=O)NS(=O)(=O)CCNC(=O)c3ccoc3)[nH]c3cc(Cl)ccc23)cc(C)c1Cl: 19
Cc1cc(OCCCc2c(C(=O)NS(=O)(=O)CCNC(=O)[C@@H]3Cc4ccccc4N3)[nH]c3cc(Cl)ccc23)cc(C)c1Cl: 46
Cc1cc(OCCCc2c(C(=O)NS(=O)(=O)CCNC(=O)c3ccc4cc[nH]c4c3)[nH]c3ccccc23)cc(C)c1Cl: 278
Cc1cc(OCCCc2c(C(=O)NS(=O)(=O)CCNC(=O)C3CCCCC3)[nH]c3ccccc23)cc(C)c1Cl: 118

May I ask what Ki has been recorded for Cc1cc(OCCCc2c(C(=O)NS(=O)(=O)CCNC(=O)c3ccccc3F)[nH]c3ccccc23)cc(C)c1Cl ? 336

Quick check: Ki of Cc1cc(OCCCc2c(C(=O)NS(=O)(=O)CCNC(=O)CC(C)C)[nH]c3cc(Cl)ccc23)cc(C)c1Cl ? 10

# input molecule: Cc1cc(OCCCc2c(C(=O)NS(=O)(=O)CCNS(=O)(=O)C3CCCCC3)[nH]c3ccccc23)cc(C)c1Cl ; wanted: its Ki 251

Requested read-out: Ki. Entry: Cc1cc(OCCCc2c(C(=O)NS(=O)(=O)c3ccccc3)[nH]c3cc(Cl)ccc23)cc(C)c1Cl 91

I have this molecule here, O=C(NS(=O)(=O)CCNC(=O)C1CCCCC1)c1[nH]c2cc(Cl)ccc2c1CCCOc1cccc2ccccc12 , and I need its recorded Ki. 374

Entry under review: Cc1cc(OCCCc2c(C(=O)NS(=O)(=O)CCNC(=O)c3cn(C)c4ccccc34)[nH]c3ccccc23)cc(C)c1Cl . Reported Ki? 432

Which Ki value belongs to Cc1cc(OCCCc2c(C(=O)NS(=O)(=O)CCNC(=O)c3ccc(F)cc3)[nH]c3ccccc23)cc(C)c1Cl ? 117

----------
Observed Ki values for Induced myeloid leukemia cell differentiation protein Mcl-1 (Homo sapiens, UniProt Q07820) are listed in what follows.
Write the answer as a number in nM, unit excluded.

Some molecules with known Ki results, for comparison:
Cc1cc(OCCCc2c(C(=O)NS(=O)(=O)CCOc3ccccc3)[nH]c3ccccc23)cc(C)c1Cl: 322
CCC(=O)NCCS(=O)(=O)NC(=O)c1[nH]c2cc(Cl)ccc2c1CCCOc1cc(C)c(Cl)c(C)c1: 87

For the record Cc1ccncc1-c1cccc2c(CCCOc3cc(C)c(Cl)c(C)c3)c(C(=O)NS(=O)(=O)c3ccccc3)[nH]c12 , what value of Ki is listed for Induced myeloid leukemia cell differentiation protein Mcl-1 (Homo sapiens, UniProt Q07820)? 36

----------
biological target: Bcl-2-like protein 1 (Homo sapiens)
Sequence (Q07817 whole entry): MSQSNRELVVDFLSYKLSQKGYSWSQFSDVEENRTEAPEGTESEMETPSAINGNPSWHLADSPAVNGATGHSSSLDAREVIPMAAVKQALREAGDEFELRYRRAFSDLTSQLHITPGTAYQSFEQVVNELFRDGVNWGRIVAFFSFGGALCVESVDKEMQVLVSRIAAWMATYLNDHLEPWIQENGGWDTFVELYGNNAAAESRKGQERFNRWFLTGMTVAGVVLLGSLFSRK
ENDPOINT: Ki

These solved cases illustrate the format of a correct answer.
Cc1cc(OCCCc2c(C(=O)NS(=O)(=O)c3ccc(C(=O)NCc4ccncc4)o3)[nH]c3c(-c4c(C)nn(C)c4C)c(Cl)ccc23)cc(C)c1Cl: > 50 µM
CC(=O)NCc1cccc(S(=O)(=O)NC(=O)c2[nH]c3c(-c4c(C)nn(C)c4C)c(Cl)ccc3c2CCCOc2cc(C)c(Cl)c(C)c2)c1: 9.07 µM
Cc1cc(OCCCc2c(C(=O)NS(=O)(=O)c3ccc(C(=O)NCc4ccccc4)o3)[nH]c3c(-c4c(C)nn(C)c4C)c(Cl)ccc23)cc(C)c1Cl: > 50 µM
Cc1cc(OCCCc2c(C(=O)NS(=O)(=O)c3ccnc(N(C)CCc4ccccc4)c3)[nH]c3c(-c4c(C)nn(C)c4C)c(Cl)ccc23)cc(C)c1Cl: 0.943 µM
Cc1cc(OCCCc2c(C(=O)NS(=O)(=O)c3cccc(CNC(=O)c4ccccc4C(F)(F)F)c3)[nH]c3c(-c4c(C)nn(C)c4C)c(Cl)ccc23)cc(C)c1Cl: 4.47 µM
Cc1cc(OCCCc2c(C(=O)NS(=O)(=O)c3ccnc(NCCC(C)C)c3)[nH]c3c(-c4c(C)nn(C)c4C)c(Cl)ccc23)cc(C)c1Cl: 4.47 µM

Give recorded Ki with Bcl-2-like protein 1 (Homo sapiens) for the following compound: Cc1cc(OCCCc2c(C(=O)NS(=O)(=O)c3cccc(CNC(=O)CC(C)C)c3)[nH]c3c(-c4c(C)nn(C)c4C)c(Cl)ccc23)cc(C)c1Cl 1.57 µM

Please tell me: Ki of Cc1cc(OCCCc2c(C(=O)NS(=O)(=O)c3ccnc(NC4Cc5ccccc5C4)c3)[nH]c3c(-c4c(C)nn(C)c4C)c(Cl)ccc23)cc(C)c1Cl , system Bcl-2-like protein 1 (Homo sapiens)? 0.997 µM

----------
Here's a batch of compounds along with measured pKi for Induced myeloid leukemia cell differentiation protein Mcl-1 (Homo sapiens, UniProt Q07820).
Convention used: pKi is expressed as -log10 of the molar concentration.

CCC(CC)C(=O)NCCS(=O)(=O)NC(=O)c1[nH]c2cc(Cl)ccc2c1CCCOc1cc(C)c(Cl)c(C)c1: 7.80
CC(=O)NCCS(=O)(=O)NC(=O)c1[nH]c2cc(Cl)ccc2c1CCCOc1cc(C)c(Cl)c(C)c1: 6.68
Cc1cc(OCCCc2c(C(=O)NS(=O)(=O)CCNC(=O)c3ccco3)[nH]c3cc(Cl)ccc23)cc(C)c1Cl: 7.28
Cc1cc(OCCCc2c(C(=O)NS(=O)(=O)CCNC(=O)c3cccc(C(F)(F)F)c3)[nH]c3cc(Cl)ccc23)cc(C)c1Cl: 7.10
Cc1cc(OCCCc2c(C(=O)NS(=O)(=O)CCNC(=O)c3cccn3-c3ccccc3)[nH]c3ccccc23)cc(C)c1Cl: 6.86

Moving on to the next compound.
# query: pKi | item Cc1cc(OCCCc2c(C(=O)NS(=O)(=O)CCNC(=O)C(F)(F)F)[nH]c3cc(Cl)ccc23)cc(C)c1Cl | system: Induced myeloid leukemia cell differentiation protein Mcl-1 (Homo sapiens, UniProt Q07820) 6.94

----------
target: Induced myeloid leukemia cell differentiation protein Mcl-1 (Homo sapiens, UniProt Q07820)
Sequence (Q07820 whole entry): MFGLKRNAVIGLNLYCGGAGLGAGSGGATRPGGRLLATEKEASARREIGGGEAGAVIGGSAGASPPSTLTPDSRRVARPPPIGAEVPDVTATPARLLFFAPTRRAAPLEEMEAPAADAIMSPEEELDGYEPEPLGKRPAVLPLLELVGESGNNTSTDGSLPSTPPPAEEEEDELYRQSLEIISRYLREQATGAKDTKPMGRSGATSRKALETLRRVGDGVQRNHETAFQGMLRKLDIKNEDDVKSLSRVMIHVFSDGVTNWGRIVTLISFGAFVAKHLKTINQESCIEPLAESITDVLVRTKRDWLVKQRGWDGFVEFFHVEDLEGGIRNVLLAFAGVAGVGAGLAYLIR
Please respond with Condition met when measured Ki is strictly beneath 80 nM, and with Condition not met in all other cases.

Here are 4 compounds together with their reported answers.
Cc1cc(OCCCc2c(C(=O)NS(=O)(=O)c3ccnc(NC4Cc5ccccc5C4)c3)[nH]c3c(-c4c(C)nn(C)c4C)c(Cl)ccc23)cc(C)c1Cl: Condition met
Cc1cc(OCCCc2c(C(=O)NS(=O)(=O)c3ccnc(NCCC(C)C)c3)[nH]c3c(-c4c(C)nn(C)c4C)c(Cl)ccc23)cc(C)c1Cl: Condition not met
Cc1cc(OCCCc2c(C(=O)NS(=O)(=O)c3cccc(CNC(=O)CC(C)C)c3)[nH]c3c(-c4c(C)nn(C)c4C)c(Cl)ccc23)cc(C)c1Cl: Condition not met
Cc1cc(OCCCc2c(C(=O)NS(=O)(=O)c3cccc(CNC(=O)C(C)C)c3)[nH]c3c(-c4c(C)nn(C)c4C)c(Cl)ccc23)cc(C)c1Cl: Condition met

Attention now shifts to the item below.
In the record for Cc1cc(OCCCc2c(C(=O)NS(=O)(=O)c3ccccc3)[nH]c3c(-c4cccnc4C)c(Cl)ccc23)cc(C)c1Cl , is Ki less than 80 nM? Condition not met

----------
Each entry below lists one item and its recorded pKi value.
target: Induced myeloid leukemia cell differentiation protein Mcl-1 (Homo sapiens)
Here pKi is given on a logarithmic scale as minus log10 of the concentration in mol/L.

Look over these answered cases.
Cc1cc(OCCCc2c(C(=O)NS(=O)(=O)c3ccccc3)[nH]c3c(-c4c(C)n[nH]c4C)cccc23)cc(C)c1Cl: 6.29
Cc1cc(OCCCc2c(C(=O)NS(=O)(=O)c3cccc(CNC(=O)c4ccoc4)c3)[nH]c3c(-c4c(C)nn(C)c4C)c(Cl)ccc23)cc(C)c1Cl: 7.16
Cc1cc(OCCCc2c(C(=O)NS(=O)(=O)c3cccc(CNC(=O)c4cccc(C(F)(F)F)c4)c3)[nH]c3c(-c4c(C)nn(C)c4C)c(Cl)ccc23)cc(C)c1Cl: 7.11
Cc1cc(OCCCc2c(C(=O)NS(=O)(=O)c3ccnc(NCCc4ccccc4)c3)[nH]c3c(-c4c(C)nn(C)c4C)c(Cl)ccc23)cc(C)c1Cl: 7.11
Cc1cc(OCCCc2c(C(=O)NS(=O)(=O)c3ccccc3)[nH]c3c(-c4c(C)n[nH]c4C)c(Cl)ccc23)cc(C)c1Cl: 6.83

Bench note: what pKi did Cc1cc(OCCCc2c(C(=O)NS(=O)(=O)c3ccc(C(=O)NCc4ccncc4)o3)[nH]c3c(-c4c(C)nn(C)c4C)c(Cl)ccc23)cc(C)c1Cl show? 7.70

pKi lookup needed for CC(=O)NCc1cccc(S(=O)(=O)NC(=O)c2[nH]c3c(-c4c(C)nn(C)c4C)c(Cl)ccc3c2CCCOc2cc(C)c(Cl)c(C)c2)c1 , thanks. 7.38

Origin of values: ChEMBL document CHEMBL3785006
